// provenance: patent US20240165281A1

# Assay Overview: Apparent molecular weight (MWapp)
Measurement Label: MWapp (kDa)

{"Compound": "O=C(O)CC[C@H](NC(=O)N[C@@H](CCCCNC(=O)[C@H](Cc1ccc2ccccc2c1)NC(=O)[C@H]1CC[C@H](CNC(=O)CN2CCN(CC(=O)O)CCN(CC(=O)O)CCN(CC(=O)O)CC2)CC1)C(=O)O)C(=O)O [PSMA-617, reference compound]", "Measurement Label": "MWapp", "Experimental Result": 13.7}
{"Compound": "CC(C)(C)[Si](F)(c1ccc(C(=O)NC[C@@H](NC(=O)CN2CCN(CC(=O)O)CCN(CC(=O)O)CCN(CC(=O)O)CC2)C(=O)N[C@H](CO)C(=O)NCCC(=O)NCCC(=O)NCCC[C@@H](NC(=O)CC[C@H](NC(=O)N[C@@H](CCC(=O)O)C(=O)O)C(=O)O)C(=O)O)cc1)C(C)(C)C", "Measurement Label": "MWapp", "Experimental Result": 17.6}
{"Compound": "CC(C)(C)[Si](F)(c1ccc(C(=O)NC[C@@H](NC(=O)CC[C@@H](C(=O)O)N2CCN(CC(=O)O)CCN(CC(=O)O)CCN(CC(=O)O)CC2)C(=O)N[C@H](CCCCNC(=O)CCC(=O)NCCC[C@@H](NC(=O)CC[C@H](NC(=O)N[C@@H](CCC(=O)O)C(=O)O)C(=O)O)C(=O)O)C(=O)O)cc1)C(C)(C)C [rhPSMA-7.3, reference compound]", "Measurement Label": "MWapp", "Experimental Result": 30.4}
{"Compound": "CC(C)(C)[Si](F)(c1ccc(C(=O)NCC(NC(=O)CCC(C(=O)O)N2CCN(CC(=O)O)CCN(CC(=O)O)CCN(CC(=O)O)CC2)C(=O)NC(CN)C(=O)NCCC(=O)NCCC(=O)NCCCC(NC(=O)CCC(NC(=O)NC(CCC(=O)O)C(=O)O)C(=O)O)C(=O)O)cc1)C(C)(C)C (centres unmarked)", "Measurement Label": "MWapp", "Experimental Result": 18.9}
{"Compound": "CC(C)(C)[Si](F)(c1ccc(C(=O)NC[C@@H](NC(=O)[C@@H](CCCNC(N)=O)NC(=O)CC[C@@H](C(=O)O)N2CCN(CC(=O)O)CCN(CC(=O)O)CCN(CC(=O)O)CC2)C(=O)NCCCCCC(=O)NCCC[C@@H](NC(=O)CC[C@H](NC(=O)N[C@@H](CCC(=O)O)C(=O)O)C(=O)O)C(=O)O)cc1)C(C)(C)C", "Measurement Label": "MWapp", "Experimental Result": 19.2}
